Cited source for all entries: ChEMBL document CHEMBL4665889

Assay: Blood clearance in Wistar Hannover rat at 0.3 to 0.5 mg/kg, iv by LC-MS/MS analysis
Type: ADME, organism-based
Details: whole blood, dose 0.3-0.5 mg/kg, time <=24 hrs
outcome measure: clearance (mL/min/kg)

Answered examples (6):
compound="COc1cc(C(=O)N2CC(C)OCC2CCO)cc2nc(NCc3cc(Cl)ccn3)oc12 (stereo unspecified)" result_value=40
compound="COc1cc(C(=O)N2CC(C)(CCO)OC[C@H]2C)cn2nc(NCc3cccc(Cl)c3)nc12 (stereo partly specified)" result_value=76.7
compound=COc1cc(C(=O)N2C[C@H](C)OC[C@@H]2CCO)cc2nc(N[C@H](CF)c3cccc(Cl)c3)oc12 result_value=51.7
compound="COc1cc(C(=O)N2CC(C)(CCO)OC[C@H]2C)cc2nc(NCc3cc(Cl)ccn3)oc12 (stereo partly specified)" result_value=66.7
compound=O=C(NCc1cccc(Cl)c1)c1ccc2cn(CCN3CCOC3=O)nc2c1 result_value=23.3
compound="COc1cc(C(=O)N2CC(C)OCC2CO)cc2nc(N[C@H](C)c3cccc(Cl)c3)oc12 (stereo partly specified)" result_value=40

(a) COc1cc(C(=O)N2CCOC(C)(CCO)C2)cc2nc(N[C@H](C)c3cccc(Cl)c3)oc12 (stereo partly specified)
(b) COc1cc(C(=O)N2CC[C@@H](O)[C@H](C)C2)cc2nc(NCc3cccc(Cl)c3)oc12
### Prompt Task for the reader: decide whether a or b has the larger clearance. Give the label of your selection.
### Response a
(a: 48.3 mL/min/kg, b: 28.3 mL/min/kg)
